# PROCEDURE_TEXT: NCI Yeast Anticancer Drug Screen. Data for the mec2-1 strain (AID 157)
# MEASUREMENT_CONDITIONS: S. cerevisiae mec2-1 strain, at 50.0 µM, active compounds read high
About 79,000 compounds went through this panel and 15% of them were active in at least one assay; those are over-represented in the sample as a whole.
RESULT_TYPE: growth inhibition (%)
Number in %, nothing else.

Qu. Looking for the measured growth inhibition of CCOP(=O)(OCC)Oc1cc(C)c(SC#N)c(C)c1 , can you help?
Ans. 20.6

###

Let's look at some compounds and their measured growth inhibition.
# PROCEDURE_TEXT: NCI Yeast Anticancer Drug Screen. Data for the cln2 rad14 strain (AID 165);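 also: 0% = growth equal to vehicle treated cultures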
# MEASUREMENT_CONDITIONS: S. cerevisiae cln2 rad14 strain, at 5.0 µM (retest, dose inferred, filed as 0.5), active compounds read high
The panel holds about 79,000 compounds, 15% with a hit somewhere; the sample as a whole holds those more often.
Express the result in % but write the number alone.

COMPOUND | growth inhibition / %
CCC1(O)C(=O)OCc2c1cc1n(c2=O)Cc2c-1nc1ccccc1c2OC (configuration not stated) | 19
ClCCCCCl | 5
Cc1cc(NCc2ccccc2)c2ccccc2[n+]1CCCCCCCCCC[n+]1c(C)cc(NCc2ccccc2)c2ccccc21 | 98
S=P(Nc1ccccc1)(Oc1ccccc1)c1ccccc1 (configuration not stated) | -1
COC1/C=C\C=C(/C)C(=O)NC2=CC(=O)C(NCCCl)=C(CC(C)CC(OC)C(O)C(C)/C=C(/C)C1OC(N)=O)C2=O (configuration not stated) | 88
c1ccc2c(c1)[As]=c1ccccc1=[As]2 (configuration not stated) | 36
CCC[CH2][Sn]([CH2]CCC)([O]C(=O)C(N)CSC)[O]C(=O)C(N)CSC (configuration not stated) | 1
NC(N)=N/N=C1\C(=O)N(c2ccc(Cl)cc2)C(=O)C1C(=O)Nc1ccc(Cl)cc1 (configuration not stated) | 0

Consider now this further compound.
Qu. Quick one: growth inhibition of CN(C)C(=S)[S][Sb]([c]1ccccc1)[c]1ccccc1 ?
Ans. 89

These entries and their values trace back to PubChem BioAssay (NCI).
